Where do the numbers come from? From patent US8058243B2.

Field: EC50. Provide a value for each of the molecules that follow.
# Test system: mouse NSC neurosphere cultures
# assay: Dose-response curves and EC50, neurosphere MTT proliferation, 7 days
# Format: cell-based
# experimental-parameters: normal mouse neurosphere cultures, MTT, 7 days; read-out: Neurosphere EC50
Numbers only; they are read as nM.

Query :: State the recorded EC50 for this entry: Cl.Cl.OCCN1CCN(CC/C=C2/c3ccccc3Sc3ccc(C(F)(F)F)cc32)CC1 [cis-(Z)-Flupenthixol (7), cis-(Z)-Flupenthixol]
Result :: 199

Query :: Query O[Si](CCCN1CCCCC1)(c1ccc(F)cc1)C1CCCCC1 (centres unmarked) [p-F-HHSiD (8), p-fluoro-hexahydrosila-difenidol] next
Result :: 441

Query :: Query `N.N.O=C([O-])C1(C(=O)[O-])CCC1.[Pt+2]` next
Result :: 489

Query :: Query `Nc1ccc(CCN2CCN(c3cccc(C(F)(F)F)c3)CC2)cc1` next
Result :: 31

Query :: Query `Oc1ccc(-c2nc(-c3ccc(F)cc3)c(-c3ccncc3)[nH]2)cc1` next
Result :: 8060

###

Field: Z score. Provide a value for each of the compounds that follow.
# Tested on: murine neural precursor cells (neurosphere cultures)
# assay: HTS of LOPAC library against secondary neurosphere cultures, MTT proliferation assay at 3 μM, day 7 (z score, P value)
# Format: cell-based, mouse
# experimental-parameters: 168 h, 3 µM
Where a name gives a salt, the structure may show the parent alone.
Give the value as a plain number.

Query :: Given the entry O=C1CC2(CCCC2)CC(=O)N1CCCCN1CCN(c2ncccn2)CC1 [Buspirone hydrochloride] , what Z score was observed with murine neural precursor cells (neurosphere cultures)?
Result :: −1.775

Query :: Query CSc1ccc2c(c1)N(CCC1CCCCN1C)c1ccccc1S2 (centres unmarked) [Thioridazine hydrochloride] next
Result :: 0.236

Query :: Query Cn1cnc2c1c(=O)[nH]c(=O)n2C [Theobromine] next
Result :: −1.392

Query :: Query CCN(CC)CCOC(=O)C1(C2CCCCC2)CCCCC1 [Dicyclomine hydrochloride] next
Result :: 1.414

Query :: Query `O=C(O)c1cc([N+](=O)[O-])ccc1NCCCc1ccccc1` next
Result :: −0.734

###

# Test system: murine neural precursor cells (neurosphere cultures)
# assay: HTS of LOPAC library against secondary neurosphere cultures, MTT proliferation assay at 3 μM, day 7 (z score, P value)
# Assay type: cell-based, mouse
# experimental-parameters: LOPAC library screen, 3 μM, MTT, secondary neurosphere cultures, day 7
Structures can show the parent of a compound that is named as a salt.
Field: Z Score. Provide a value for each of the compounds that follow.
Give the value as a plain number.

Query :: State the recorded Z Score for this entry: CC(C)(C)NCC(O)c1ccc(O)c(CO)c1 (stereo not drawn) [Salbutamol]
Result :: −1.678

Query :: Query Cc1cc(N)c2ccccc2[n+]1CCCCCCCCCC[n+]1c(C)cc(N)c2ccccc21 [Dequalinium (29), Dequalinium, reference compound] next
Result :: −9.54

Query :: Query OCCN1CCN(CCCN2c3ccccc3Sc3ccc(Cl)cc32)CC1 [Perphenazine (26), Perphenazine, reference compound] next
Result :: −11.06

Query :: Query N.N.O=C([O-])C1(C(=O)[O-])CCC1.[Pt+2] [Carboplatin (3), Carboplatin] next
Result :: −6.204

Query :: Query CCOC(=O)C(C)(C)Oc1ccc(Cl)cc1 [Clofibrate] next
Result :: −1.738

Query :: Query COc1ccc(OC)c(C(O)C(C)N)c1 (stereo not drawn) [Methoxamine hydrochloride] next
Result :: −3.255

Query :: Query C[C@@H]1O[C@@H]1P(=O)([O-])[O-].[Na+].[Na+] [Phosphomycin disodium] next
Result :: −1.402

Query :: Query Cc1nnc(SCC2=C(C(=O)O)N3C(=O)[C@@H](NC(=O)Cn4cnnn4)[C@H]3SC2)s1 [Cefazolin sodium] next
Result :: −2.58

Query :: Query CC(=O)c1ccc(S(=O)(=O)NC(=O)NC2CCCCC2)cc1 [Acetohexamide] next
Result :: −2.24

Query :: Query CCCCNc1cc(C(=O)O)cc(S(N)(=O)=O)c1Oc1ccccc1 [Bumetanide] next
Result :: −2.182

Query :: Query CCN(CC)CCOCCOC(=O)C1(c2ccccc2)CCCC1 [Carbetapentane (10), Carbetapentane] next
Result :: −8.021

Query :: Query CC(C)[C@H](CO)Nc1nc(Nc2cccc(Cl)c2)c2ncn(C(C)C)c2n1 [Purvalanol A] next
Result :: −11.23

Query :: Query N[C@@H]1CONC1=O [D-Cycloserine] next
Result :: −1.24

Query :: Query CCc1cccc(N(C)C(N)=Nc2cccc3ccccc23)c1 [CNS-1102] next
Result :: −3.782

Query :: Query CCC1(C2=NCCN2)Cc2ccccc2O1 (stereo not drawn) [Efaroxan hydrochloride] next
Result :: −2.338

Query :: Query CNCCc1ccc(O)c(O)c1.Cl [N-Methyldopamine hydrochloride] next
Result :: −1.219

Query :: Query NS(=O)(=O)c1cc2c(cc1Cl)N=CNS2(=O)=O [Chlorothiazide] next
Result :: −3.165

Query :: Query N=C(N)N/N=C/c1c(Cl)cccc1Cl [Guanabenz acetate] next
Result :: −1.906
